Sourced from ChEMBL document CHEMBL1201862

# Tested on: A498
About 3,800 (7.5%) of roughly 51,000 sequences were called active. The list comes from a sample in which actives are over-represented; it also holds close analogues and randomly drawn sequences. Potency and affinity values are given separately.
Strictly below 300 nM in GI50: yes. Otherwise: no.

Solved entries:
INSERT INTO results (substance, assignedlabel) VALUES
  ('[Bis(aminomethyl)pentamethylenesilane]tetrachloropaltinum(IV), CHEMBL2146204', 'yes'),
  ('mu-(1,7-nanodiamine-N,N'')bis-(cis-aminedichloroplatimum (II)), CHEMBL2146215', 'no'),
  ('[Bis(aminomethyl)tetramethylenesilane]tetrachloropaltinum(IV), CHEMBL2146189', 'no');

Q. Item CISPLATIN, CHEMBL11359 : GI50 beneath 300 nM, strictly?
A. no

Q. Item [Bis(aminomethyl)pentamethylenesilane]dichloropaltinum(II), CHEMBL2146202 : GI50 beneath 300 nM, strictly?
A. yes
